A collection of compounds and their measured residual activity
Biological target: Ribosomal protein S6 kinase alpha-6 (Homo sapiens) (UniProt Q9UK32)
Sequence (Q9UK32 whole entry): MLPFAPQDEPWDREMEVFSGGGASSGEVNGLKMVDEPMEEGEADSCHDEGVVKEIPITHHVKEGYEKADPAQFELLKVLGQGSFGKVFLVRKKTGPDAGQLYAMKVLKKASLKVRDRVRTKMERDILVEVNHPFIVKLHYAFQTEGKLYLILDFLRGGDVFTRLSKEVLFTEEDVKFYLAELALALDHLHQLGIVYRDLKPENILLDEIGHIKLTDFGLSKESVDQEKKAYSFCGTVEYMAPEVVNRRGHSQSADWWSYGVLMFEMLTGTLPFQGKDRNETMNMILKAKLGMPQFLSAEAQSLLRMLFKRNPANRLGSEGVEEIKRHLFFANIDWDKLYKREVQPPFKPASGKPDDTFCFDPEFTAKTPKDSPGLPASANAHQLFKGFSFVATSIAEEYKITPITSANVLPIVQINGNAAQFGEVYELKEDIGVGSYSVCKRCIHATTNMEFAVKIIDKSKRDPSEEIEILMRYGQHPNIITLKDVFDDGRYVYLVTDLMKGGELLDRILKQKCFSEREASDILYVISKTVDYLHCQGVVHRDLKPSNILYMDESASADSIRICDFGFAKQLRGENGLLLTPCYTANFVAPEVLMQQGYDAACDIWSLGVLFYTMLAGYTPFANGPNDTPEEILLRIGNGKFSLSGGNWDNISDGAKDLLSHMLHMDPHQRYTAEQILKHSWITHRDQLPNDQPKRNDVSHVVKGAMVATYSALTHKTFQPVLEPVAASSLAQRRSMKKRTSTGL
Details: at 1 µM

SMILES TEXT	UNIT ABBREV	residual activity
O=c1cc(-c2cccc3c2Sc2ccccc2S3)oc(N2CCOCC2)c1	%	96
Cc1cc(Nc2nc(-c3ccccc3)nc3ccccc23)n[nH]1	%	43
COc1ccc(CNc2nc(N(CCO)CCO)nc3c2ncn3C(C)C)cc1	%	84
O=c1c2ccccc2[nH]c(=S)n1CCN1CCC(=C(c2ccc(F)cc2)c2ccc(F)cc2)CC1	%	114
O=Nc1c(-c2c(O)[nH]c3ccccc23)[nH]c2ccccc12	%	20

###

As shown below, each of these compounds has a reported residual activity value.
Target: NUAK family SNF1-like kinase 1 (Homo sapiens) (UniProt O60285)
Sequence (O60285 whole entry): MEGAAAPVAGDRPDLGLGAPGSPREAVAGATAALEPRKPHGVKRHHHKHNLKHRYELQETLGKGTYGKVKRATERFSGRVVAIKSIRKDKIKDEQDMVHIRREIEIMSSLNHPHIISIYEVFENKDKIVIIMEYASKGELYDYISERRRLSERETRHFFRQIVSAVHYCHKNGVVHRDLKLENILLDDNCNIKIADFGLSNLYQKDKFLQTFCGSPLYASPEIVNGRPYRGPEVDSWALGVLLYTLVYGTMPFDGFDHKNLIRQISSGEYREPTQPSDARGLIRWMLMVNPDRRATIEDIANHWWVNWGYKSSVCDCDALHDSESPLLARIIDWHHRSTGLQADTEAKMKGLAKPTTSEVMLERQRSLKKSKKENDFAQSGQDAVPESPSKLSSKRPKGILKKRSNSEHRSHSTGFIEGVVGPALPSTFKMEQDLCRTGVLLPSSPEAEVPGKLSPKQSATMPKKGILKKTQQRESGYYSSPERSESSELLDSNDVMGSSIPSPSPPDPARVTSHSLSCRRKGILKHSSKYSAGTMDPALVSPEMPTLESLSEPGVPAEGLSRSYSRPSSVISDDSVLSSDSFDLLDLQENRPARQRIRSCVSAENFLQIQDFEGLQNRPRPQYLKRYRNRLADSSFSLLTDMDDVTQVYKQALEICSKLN
Details: at 10 µM

SMILES TEXT	residual activity (%)
Nc1n[nH]c2nnc(-c3c(-c4ccccc4)nn4ccccc34)cc12	79
Cc1cncc2cccc(S(=O)(=O)N3CCCN(C(=O)CN)C[C@H]3C)c12	71
COc1cc2ncc(-c3ccccc3)nc2cc1OC	77
c1ccc(-c2n[nH]cc2-c2ccnc3ccccc23)nc1	90
Nc1cccc(-c2cc3c(Oc4cccc(O)c4)ncnc3[nH]2)c1	7
C[C@@H](N)[C@H]1CC[C@H](C(=O)Nc2ccncc2)CC1	91
O=C1NC(=O)c2c1c1c3ccccc3[nH]c1c1[nH]c3cc(Br)ccc3c21	45
O=C1Nc2ccc(Br)cc2/C1=C\c1cc2c([nH]1)CCCC2	74
N#CCCc1ccc2c(c1)-c1[nH]c3ccc([N+](=O)[O-])cc3c1CC(=O)N2	8
O=C1c2ccccc2-[n+]2ccc3c([nH]c4ccccc43)c21	83

###

Molecular target: Insulin-like growth factor 1 receptor (Homo sapiens) (UniProt P08069)
Sequence (P08069 31-736 limits assumed): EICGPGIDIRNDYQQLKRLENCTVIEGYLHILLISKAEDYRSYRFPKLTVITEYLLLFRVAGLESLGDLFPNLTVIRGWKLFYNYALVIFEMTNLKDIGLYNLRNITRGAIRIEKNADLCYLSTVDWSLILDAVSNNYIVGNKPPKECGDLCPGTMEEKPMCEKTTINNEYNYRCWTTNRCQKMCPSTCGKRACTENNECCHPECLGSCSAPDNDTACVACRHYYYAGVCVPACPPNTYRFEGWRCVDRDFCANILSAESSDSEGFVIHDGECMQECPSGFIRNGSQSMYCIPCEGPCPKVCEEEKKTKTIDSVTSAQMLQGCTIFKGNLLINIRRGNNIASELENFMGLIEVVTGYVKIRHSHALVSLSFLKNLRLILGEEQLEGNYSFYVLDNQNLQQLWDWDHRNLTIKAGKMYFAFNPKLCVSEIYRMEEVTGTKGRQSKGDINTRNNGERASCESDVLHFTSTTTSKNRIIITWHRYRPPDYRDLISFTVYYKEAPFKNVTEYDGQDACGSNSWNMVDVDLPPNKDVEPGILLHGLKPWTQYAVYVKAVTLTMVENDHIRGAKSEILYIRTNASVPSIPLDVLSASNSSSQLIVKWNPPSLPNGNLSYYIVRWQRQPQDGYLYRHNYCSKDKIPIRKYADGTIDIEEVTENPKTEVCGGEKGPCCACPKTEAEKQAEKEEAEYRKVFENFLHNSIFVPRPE
Sequence (P08069 741-1367 limits assumed): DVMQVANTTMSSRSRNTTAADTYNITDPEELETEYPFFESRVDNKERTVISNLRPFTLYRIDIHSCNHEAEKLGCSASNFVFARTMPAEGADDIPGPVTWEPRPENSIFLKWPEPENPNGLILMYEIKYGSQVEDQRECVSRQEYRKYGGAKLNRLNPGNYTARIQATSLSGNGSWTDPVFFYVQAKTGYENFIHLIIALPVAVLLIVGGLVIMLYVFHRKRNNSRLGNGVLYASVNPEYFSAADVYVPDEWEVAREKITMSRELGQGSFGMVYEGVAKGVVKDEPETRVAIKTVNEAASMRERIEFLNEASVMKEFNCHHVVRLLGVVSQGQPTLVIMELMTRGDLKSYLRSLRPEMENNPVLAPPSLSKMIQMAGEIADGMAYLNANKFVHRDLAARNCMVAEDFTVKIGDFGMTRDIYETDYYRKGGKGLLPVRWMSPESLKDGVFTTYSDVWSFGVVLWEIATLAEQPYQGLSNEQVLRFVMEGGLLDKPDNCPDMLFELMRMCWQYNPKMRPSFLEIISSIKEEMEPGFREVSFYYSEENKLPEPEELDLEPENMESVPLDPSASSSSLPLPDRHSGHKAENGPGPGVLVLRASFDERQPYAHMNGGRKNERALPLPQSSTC
Conditions: at 10 µM
PROPERTY LABEL: residual activity (%)

SMILES TEXT	MEASURED ON	VAL
O=C(Nc1cccc(Nc2cc(Nc3cccc(C(F)(F)F)c3)ncn2)c1)C1CC1	Insulin-like growth factor 1 receptor (Homo sapiens) (UniProt P08069)	115
CO[C@@H]1[C@H](N(C)C(=O)c2ccccc2)C[C@H]2O[C@]1(C)n1c3ccccc3c3c4c(c5c6ccccc6n2c5c31)C(=O)NC4	Insulin-like growth factor 1 receptor (Homo sapiens) (UniProt P08069)	68
CC[n+]1c(/C=C/N(C)c2ccccc2)n(-c2ccccc2)c2ccc(-c3nc4ccccc4s3)cc21	Insulin-like growth factor 1 receptor (Homo sapiens) (UniProt P08069)	43
CO[C@H]1[C@@H](OC)C[C@H](C)[C@@H](OC)C2=CC(=O)C=C(NC(=O)/C(C)=C/C=C/[C@H](OC)[C@@H](OC(N)=O)/C(C)=C/[C@@H]1C)C2=O	Insulin-like growth factor 1 receptor (Homo sapiens) (UniProt P08069)	113
COc1ccc(S(=O)(=O)N(CCO)c2ccccc2CN(C)C/C=C/c2ccc(Cl)cc2)cc1	Insulin-like growth factor 1 receptor (Homo sapiens) (UniProt P08069)	114
O=c1c2ccccc2[nH]c(=S)n1CCN1CCC(=C(c2ccc(F)cc2)c2ccc(F)cc2)CC1	Insulin-like growth factor 1 receptor (Homo sapiens) (UniProt P08069)	104
CNc1cc2c(Nc3cccc(Br)c3)ncnc2cn1	Insulin-like growth factor 1 receptor (Homo sapiens) (UniProt P08069)	109
O=C1Nc2cc(Br)ccc2/C1=C1/Nc2ccccc2/C1=N\O	Insulin-like growth factor 1 receptor (Homo sapiens) (UniProt P08069)	127
O=C1NC(=O)/C(=C/c2ccc3c(c2)OC(F)(F)O3)S1	Insulin-like growth factor 1 receptor (Homo sapiens) (UniProt P08069)	130
Cn1nc2c3c(cccc31)C(=O)c1ccccc1-2	Insulin-like growth factor 1 receptor (Homo sapiens) (UniProt P08069)	106
CCOc1cc2ncnc(Nc3cccc(Br)c3)c2cc1OCC	Insulin-like growth factor 1 receptor (Homo sapiens) (UniProt P08069)	106
COc1ccc(C(=O)Nc2sc3c(c2C(N)=O)CCCC3)cc1OC	Insulin-like growth factor 1 receptor (Homo sapiens) (UniProt P08069)	74
Cn1cnc2cc3c(Nc4cccc(Br)c4)ncnc3cc21	Insulin-like growth factor 1 receptor (Homo sapiens) (UniProt P08069)	103
O=C(Nc1cccc(Nc2nccc(Nc3cccc(C(F)(F)F)c3)n2)c1)C1CC1	Insulin-like growth factor 1 receptor (Homo sapiens) (UniProt P08069)	6
O=C1NC(=O)c2cc(Nc3ccc(F)cc3)c(Nc3ccc(F)cc3)cc21	Insulin-like growth factor 1 receptor (Homo sapiens) (UniProt P08069)	108
O=C1NC(=O)c2c1c1c3ccccc3[nH]c1c1[nH]c3cc(Br)ccc3c21	Insulin-like growth factor 1 receptor (Homo sapiens) (UniProt P08069)	91
Cn1cc(/C=C2\C(=O)Nc3ccc(S(N)(=O)=O)cc32)c2ccccc21	Insulin-like growth factor 1 receptor (Homo sapiens) (UniProt P08069)	114
O=C1c2ccccc2-[n+]2ccc3c([nH]c4ccccc43)c21	Insulin-like growth factor 1 receptor (Homo sapiens) (UniProt P08069)	67
Nc1nc(Nc2ccc(S(N)(=O)=O)cc2)nn1C(=S)Nc1c(F)cccc1F	Insulin-like growth factor 1 receptor (Homo sapiens) (UniProt P08069)	98
Cc1cc2ncc(-c3ccccc3)nc2cc1C	Insulin-like growth factor 1 receptor (Homo sapiens) (UniProt P08069)	144
COc1cc2ncnc(Nc3ccc(O)c(Br)c3)c2cc1OC	Insulin-like growth factor 1 receptor (Homo sapiens) (UniProt P08069)	73
Cc1cc(Nc2nc(-c3ccccc3)nc3ccccc23)n[nH]1	Insulin-like growth factor 1 receptor (Homo sapiens) (UniProt P08069)	1
Cc1nc(-c2ccccc2)c(-c2ccncc2)o1	Insulin-like growth factor 1 receptor (Homo sapiens) (UniProt P08069)	128
CC#CC(=O)Nc1cc2c(Nc3ccc(F)c(Cl)c3)ncnc2cn1	Insulin-like growth factor 1 receptor (Homo sapiens) (UniProt P08069)	86
Oc1n[nH]c2nnc(-c3c(-c4ccccc4)nn4ccccc34)cc12	Insulin-like growth factor 1 receptor (Homo sapiens) (UniProt P08069)	37
N#C/C(=C(\N)Sc1ccc(N)cc1)c1ccccc1C(F)(F)F	Insulin-like growth factor 1 receptor (Homo sapiens) (UniProt P08069)	123
Nc1cccc(-c2cc3c(Oc4cccc(O)c4)ncnc3[nH]2)c1	Insulin-like growth factor 1 receptor (Homo sapiens) (UniProt P08069)	124
Cc1nc2cc3nc(-c4cccs4)cnc3cc2n1C	Insulin-like growth factor 1 receptor (Homo sapiens) (UniProt P08069)	61
CCN(CC)CCCCN1c2ccccc2Oc2ccc(Cl)cc21	Insulin-like growth factor 1 receptor (Homo sapiens) (UniProt P08069)	90
COc1cc2ncnc(Nc3ccc(NC(=O)c4ccccc4)cc3)c2cc1OC	Insulin-like growth factor 1 receptor (Homo sapiens) (UniProt P08069)	135
CC(C)n1cnc2c(NCc3ccccc3)nc(NCCCO)nc21	Insulin-like growth factor 1 receptor (Homo sapiens) (UniProt P08069)	103
O=C1NC(=O)/C(=C\c2ccc3nccnc3c2)S1	Insulin-like growth factor 1 receptor (Homo sapiens) (UniProt P08069)	114
Nc1n[nH]c2nnc(-c3c(-c4ccccc4)nn4ccccc34)cc12	Insulin-like growth factor 1 receptor (Homo sapiens) (UniProt P08069)	78

Numbers sourced from ChEMBL document CHEMBL2218924.
